// values below are reported IC50
# Test system: IL12-induced p-STAT4 in human PBMC
# PROCEDURE TEXT: IL-12 induced pSTAT4 in human PBMC
# Type: cell-based
# RUN CONDITIONS: human PBMC, IL-12 10 ng/ml; read-out: p-STAT4 IC50
QUANTITY NAME: IC50

[
  {
    "COMPOUND": "[2H]C([2H])([2H])NC(=O)c1nnc(N2CCN(C3CCC(F)(F)CC3)C2=O)cc1Nc1cccc(-c2ncn(C)n2)c1OC",
    "TESTED TARGET": "IL12-induced p-STAT4 in human PBMC",
    "REPORTED RESULT": "< 100 nM"
  },
  {
    "COMPOUND": "CNC(=O)c1nnc(N2CCCC2=O)cc1Nc1cccc(-c2ncn(C)n2)c1OC",
    "TESTED TARGET": "IL12-induced p-STAT4 in human PBMC",
    "REPORTED RESULT": "1000 to 10000 nM"
  },
  {
    "COMPOUND": "[2H]C([2H])([2H])NC(=O)c1nnc(N2CCC(C#N)(C3CC3)C2=O)cc1Nc1cccc(-c2ncn(C)n2)c1OC (stereo not drawn)",
    "TESTED TARGET": "IL12-induced p-STAT4 in human PBMC",
    "REPORTED RESULT": "1000 to 10000 nM"
  }
]

Values from patent US11053219B2
